For each of the compounds below, state its IC50.
- Tested on: ATF4 expression, HEK293T cells carrying the ATF4 luciferase reporter
- protocolText: ATF4 expression inhibition assay (ATF4 luciferase reporter)
- Assay type: cell-based
- testParameters: Homo sapiens, HEK-293T, 100 nM thapsigargin, 3 hours
Answer format: numeric, nM implied, no suffix.

Memo: O=C(COc1ccc(Cl)c(F)c1)N[C@H]1CC[C@H](CNC(=O)c2cnc(C(F)F)cn2)CC1 , reported IC50: 17.8

Sure, the documented IC50 for O=C(COc1ccc(Cl)c(F)c1)N[C@H]1CC[C@H](CNC(=O)c2ccc(OC(F)(F)F)cc2)CC1 is 5.63

Entry Cc1cc(Cl)ccc1OCC(=O)N[C@H]1CC[C@H](NC(=O)COc2ccc(Cl)cc2)CC1 — recorded IC50 = 28.7
